Every entry's value here was drawn from ChEMBL document CHEMBL3862001.

# Assay method text: Ratio of drug level in brain in C57BL/6J mouse at 20 mg/kg, po measured at 4 hrs to drug level in plasma in C57BL/6J mouse at 20 mg/kg, po measured at 2 hrs
# Assay type: ADME, organism-based
# Condition info: read-out: BPR
Experimental endpoint: Kp
Answer using only a numeral; do not append any unit.

Measured Kp, C[C@@H](NC(=O)c1nn(-c2ccc(Cl)cc2Cl)c2c1CN(C(=O)Cn1cnnn1)C/C2=C\c1ccc(F)cc1)c1ccccc1 : 0.05

====

# Target system: Cannabinoid receptor 2 (Homo sapiens, UniProt P34972)
# Sequence (P34972 whole entry): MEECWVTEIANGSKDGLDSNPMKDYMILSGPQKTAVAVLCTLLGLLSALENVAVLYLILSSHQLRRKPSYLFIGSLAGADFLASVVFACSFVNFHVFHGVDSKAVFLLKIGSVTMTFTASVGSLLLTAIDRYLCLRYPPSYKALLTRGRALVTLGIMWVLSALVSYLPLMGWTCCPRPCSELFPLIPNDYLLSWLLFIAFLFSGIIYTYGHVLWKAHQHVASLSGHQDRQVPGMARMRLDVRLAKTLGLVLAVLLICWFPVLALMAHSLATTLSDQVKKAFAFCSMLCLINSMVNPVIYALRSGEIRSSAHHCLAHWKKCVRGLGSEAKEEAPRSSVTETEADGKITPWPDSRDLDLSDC
# Assay method text: Inverse agonist activity at human CB2 receptor transfected in HEK293 cells assessed as increase of forskolin-induced cAMP production incubated for 30 mins followed by d2 labeled cAMP addition measured after 60 mins by HTRF assay
Exercise: for every item that follows, state its recorded pEC50.
Quick note: pEC50 values are minus log10 of concentrations in mol/L.

Entry COc1ccc(/C=C2\CN(C(=O)Cn3ccnn3)Cc3c(C(=O)N[C@H](C)c4ccccc4)nn(-c4ccc(Cl)cc4Cl)c32)cc1 under Cannabinoid receptor 2 (Homo sapiens, UniProt P34972) had pEC50 of 5.90

Entry COc1ccc(/C=C2\CN(C(=O)CCS(N)(=O)=O)Cc3c(C(=O)N[C@H](C)c4ccccn4)nn(-c4ccc(Cl)cc4Cl)c32)cc1 under Cannabinoid receptor 2 (Homo sapiens, UniProt P34972) had pEC50 of 6.19

Entry C[C@@H](NC(=O)c1nn(-c2ccc(Cl)cc2Cl)c2c1CN(C(=O)Cn1cnnn1)C/C2=C\c1ccc(F)cc1)c1ccccn1 under Cannabinoid receptor 2 (Homo sapiens, UniProt P34972) had pEC50 of 5.06

Entry C[C@@H](NC(=O)c1nn(-c2ccc(Cl)c(Cl)c2)c2c1CN(C(=O)Cn1cncn1)C/C2=C\c1ccc(Cl)cc1)c1ccccn1 under Cannabinoid receptor 2 (Homo sapiens, UniProt P34972) had pEC50 of 5.11

Entry COc1ccc(/C=C2\CN(C(=O)CS(N)(=O)=O)Cc3c(C(=O)N[C@H](C)c4ccccn4)nn(-c4ccc(Cl)cc4Cl)c32)cc1 under Cannabinoid receptor 2 (Homo sapiens, UniProt P34972) had pEC50 of 5.84

Entry COc1ccc(/C=C2\CN(C(=O)c3nc[nH]n3)Cc3c(C(=O)N[C@H](C)c4ccccc4)nn(-c4ccc(Cl)cc4Cl)c32)cc1 under Cannabinoid receptor 2 (Homo sapiens, UniProt P34972) had pEC50 of 5.75

Entry C[C@@H](NC(=O)c1nn(-c2ccc(Cl)cc2Cl)c2c1CN(C(=O)[C@@H](O)CO)C/C2=C\c1ccc(Cl)cc1)c1ccccc1 under Cannabinoid receptor 2 (Homo sapiens, UniProt P34972) had pEC50 of 5.54

Entry C[C@@H](NC(=O)c1nn(-c2ccc(Cl)cc2Cl)c2c1CN(C(=O)Cn1cnnn1)C/C2=C\c1ccc(F)cc1)c1ccccc1 under Cannabinoid receptor 2 (Homo sapiens, UniProt P34972) had pEC50 of 5.49
